- Test system: 186277-243-T-J2-PDC complex spheroid viability
- run.description: Anticancer human tumor 186277-243-T-J2-PDC patient-derived colon adenocarcinoma cell line growth inhibition [POLQ]
- protocol.conditions: second compound 0.1 µM; first compound 0.316 µM; active compounds read low
observation.type: viability, T/C (%)
All answers are understood in %, so give the number only.

COc1cc(C2c3cc4c(cc3C(OC3OC5COC(C)OC5C(O)C3O)C3COC(=O)C23)OCO4)cc(OC)c1O (stereo unspecified) + COC1C(OC(N)=O)C(O)C(Oc2ccc3c(O)c(NC(=O)c4ccc(O)c(CC=C(C)C)c4)c(=O)oc3c2C)OC1(C)C; 69.9

viability, T/C recorded for this compound, CCCS(=O)(=O)Nc1ccc(F)c(C(=O)c2c[nH]c3ncc(-c4ccc(Cl)cc4)cc23)c1F + COC1C(OC(N)=O)C(O)C(Oc2ccc3c(O)c(NC(=O)c4ccc(O)c(CC=C(C)C)c4)c(=O)oc3c2C)OC1(C)C , is 96.2

Record CC1COCCN1c1cc(-c2ccnn2C)c2ccnc(-c3ccn[nH]3)c2n1 (stereo unspecified) + Nc1ccc(C#CCN(C(=O)Cc2ncc(C(F)(F)F)cc2C(F)(F)F)c2ccc(F)cc2)nn1 . Reported viability, T/C: 11

# compound CC1COCCN1c1cc(C2(O)CC3CCC(C2)O3)c2cnn(-c3ccn[nH]3)c2n1 (stereo unspecified) + COC1C(OC(N)=O)C(O)C(Oc2ccc3c(O)c(NC(=O)c4ccc(O)c(CC=C(C)C)c4)c(=O)oc3c2C)OC1(C)C ; its viability, T/C = 3.87

Consider C=CCn1c(=O)c2cnc(Nc3ccc(N4CCN(C)CC4)cc3)nc2n1-c1cccc(C(C)(C)O)n1 + COC1C(OC(N)=O)C(O)C(Oc2ccc3c(O)c(NC(=O)c4ccc(O)c(CC=C(C)C)c4)c(=O)oc3c2C)OC1(C)C . Its measured viability, T/C is 13.7

viability, T/C reported for this compound CC1COCCN1c1cc(C2(S(C)(=N)=O)CC2)nc(-c2ccnc3[nH]ccc23)n1 (stereo unspecified) + COC1C(OC(N)=O)C(O)C(Oc2ccc3c(O)c(NC(=O)c4ccc(O)c(CC=C(C)C)c4)c(=O)oc3c2C)OC1(C)C : 111

// CC(C)n1c(=O)n(C)c2cnc3cc(F)c(-c4ccc(OCCCN5CCCCC5)nc4)cc3c21 + Nc1ccc(C#CCN(C(=O)Cc2ncc(C(F)(F)F)cc2C(F)(F)F)c2ccc(F)cc2)nn1 : viability, T/C value = 104

// viability, T/C lookup, compound = C=CCn1c(=O)c2cnc(Nc3ccc(N4CCN(C)CC4)cc3)nc2n1-c1cccc(C(C)(C)O)n1 + Cc1cccc(N(C)C(=O)C2C(O)CCN2c2nc(C)cc(C(F)(F)F)c2C#N)c1 , result: 29.6

----------
- Tested on: 186277-243-T-J2-PDC complex spheroid viability
- run.description: Anticancer human tumor 186277-243-T-J2-PDC cell line growth inhibition [POLQ];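 note: spheroids exposed to compounds for seven days; 100% = DMSO vehicle control viability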
- protocol.conditions: second compound 3.16 µM; first compound 3.16 µM; active compounds read low
observation.type: viability, T/C (%)
Your answer should be a plain number; it is taken to be in %.

Solved cases below.
C=CC(=O)N1CCN(c2nc(=O)n(-c3c(C)ccnc3C(C)C)c3nc(-c4c(O)cccc4F)c(F)cc23)C(C)C1 (stereo not given) + Nc1ccc(C#CCN(C(=O)Cc2ncc(C(F)(F)F)cc2C(F)(F)F)c2ccc(F)cc2)nn1; 99.3
CC(C)n1c(=O)n(C)c2cnc3cc(F)c(-c4ccc(OCCCN5CCCCC5)nc4)cc3c21 + COC1C(OC(N)=O)C(O)C(Oc2ccc3c(O)c(NC(=O)c4ccc(O)c(CC=C(C)C)c4)c(=O)oc3c2C)OC1(C)C; 92.5
O=C(Nc1ccc(O)c(NS(=O)(=O)c2ccc(F)cc2)c1)c1ccc(-c2ccccc2)cc1 + COC1C(OC(N)=O)C(O)C(Oc2ccc3c(O)c(NC(=O)c4ccc(O)c(CC=C(C)C)c4)c(=O)oc3c2C)OC1(C)C; 105
O=C(Nc1ccc(O)c(NS(=O)(=O)c2ccc(F)cc2)c1)c1ccc(-c2ccccc2)cc1 + Cc1cccc(N(C)C(=O)C2C(O)CCN2c2nc(C)cc(C(F)(F)F)c2C#N)c1; 103
Nc1ccn(C2OC(CO)C(O)C2(F)F)c(=O)n1 (stereo not given) + Nc1ccc(C#CCN(C(=O)Cc2ncc(C(F)(F)F)cc2C(F)(F)F)c2ccc(F)cc2)nn1; 15.2

viability, T/C on 186277-243-T-J2-PDC complex spheroid viability for C#Cc1c(F)ccc2cc(O)cc(-c3ncc4c(N5CC6CCC(C5)N6)nc(OCC56CCCN5CC(F)C6)nc4c3F)c12 (stereo not given) + COC1C(OC(N)=O)C(O)C(Oc2ccc3c(O)c(NC(=O)c4ccc(O)c(CC=C(C)C)c4)c(=O)oc3c2C)OC1(C)C is 5.69

Record O=C(c1cc(Cc2n[nH]c(=O)c3ccccc23)ccc1F)N1CCN(C(=O)C2CC2)CC1 + COC1C(OC(N)=O)C(O)C(Oc2ccc3c(O)c(NC(=O)c4ccc(O)c(CC=C(C)C)c4)c(=O)oc3c2C)OC1(C)C has 186277-243-T-J2-PDC complex spheroid viability viability, T/C equal to 103

Tested on 186277-243-T-J2-PDC complex spheroid viability: O=C(c1cc(Cc2n[nH]c(=O)c3ccccc23)ccc1F)N1CCN(C(=O)C2CC2)CC1 + Nc1ccc(C#CCN(C(=O)Cc2ncc(C(F)(F)F)cc2C(F)(F)F)c2ccc(F)cc2)nn1 . Observed viability, T/C: 110

O=C(Nc1ccc(O)c(NS(=O)(=O)c2ccc(F)cc2)c1)c1ccc(-c2ccccc2)cc1 + Nc1ccc(C#CCN(C(=O)Cc2ncc(C(F)(F)F)cc2C(F)(F)F)c2ccc(F)cc2)nn1 on 186277-243-T-J2-PDC complex spheroid viability gives viability, T/C = 103

The molecule COc1cc(C2c3cc4c(cc3C(OC3OC5COC(C)OC5C(O)C3O)C3COC(=O)C23)OCO4)cc(OC)c1O (stereo not given) + COC1C(OC(N)=O)C(O)C(Oc2ccc3c(O)c(NC(=O)c4ccc(O)c(CC=C(C)C)c4)c(=O)oc3c2C)OC1(C)C , tested on 186277-243-T-J2-PDC complex spheroid viability, showed viability, T/C of 25.3

Sourced from PubChem BioAssay AID1963854
